- Test context: in acetonitrile, 323.15 K
Reported property: solubility (mole fraction)
Lab note: record just the number, no unit beside it.

I have this molecule here, C[C@@H]1CC[C@H]2[C@@H](C)C(=O)O[C@@H]3O[C@@]4(C)CC[C@@H]1[C@]32OO4 , and I need its recorded solubility (mole fraction).
0.0027

====

- Test context: in methanol, 288.15 K
Reported property: solubility (mole fraction)
The response must contain the number and no unit.

So what does the record say about solubility (mole fraction) for C[C@@H]1CC[C@H]2[C@@H](C)C(=O)O[C@@H]3O[C@@]4(C)CC[C@@H]1[C@]32OO4 ?
0.000773

====

- Test context: in toluene, 323.15 K
Reported property: solubility (mole fraction)
I'd appreciate a reply containing only the number, no unit.

Given C[C@@H]1CC[C@H]2[C@@H](C)C(=O)O[C@@H]3O[C@@]4(C)CC[C@@H]1[C@]32OO4 , state its recorded solubility (mole fraction).
0.122
